Experiment: self-splicing fitness, log relative to wild type (ln ratio); higher = more splicing; Tetrahymena group I intron in knt gene, E. coli kanamycin selection, DiMSum; sequences stand for … in CUCUCU…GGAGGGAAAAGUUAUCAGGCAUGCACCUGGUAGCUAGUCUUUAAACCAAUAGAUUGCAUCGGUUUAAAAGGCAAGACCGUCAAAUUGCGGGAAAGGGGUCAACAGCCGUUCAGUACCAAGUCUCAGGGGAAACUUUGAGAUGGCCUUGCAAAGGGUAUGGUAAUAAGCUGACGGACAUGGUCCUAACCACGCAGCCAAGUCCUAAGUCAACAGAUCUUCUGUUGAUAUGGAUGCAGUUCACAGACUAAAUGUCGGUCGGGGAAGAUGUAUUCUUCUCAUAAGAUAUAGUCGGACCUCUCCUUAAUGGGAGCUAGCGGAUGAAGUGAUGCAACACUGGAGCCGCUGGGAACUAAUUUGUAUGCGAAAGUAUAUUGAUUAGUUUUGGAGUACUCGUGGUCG;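 note: selection with 25 µg/mL kanamycin versus none on LB agar overnight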
Details: 30 °C
# binning rule on self-splicing fitness (ln): LOW: < -3; MID: ≥ -3 and < -1; HIGH: ≥ -1

Please review the following examples before continuing.
1. UACGAGCAAUAUUACGGACG ... MID
2. CACGAGCAAUAUUACGCUUA ... MID
3. CUCGAGCAAUAUUACGAGUC ... LOW

Data request: Hi there! Could you help me figure out the category for AGGAAGCAAUAUUACGCGAG please?
Data returned: MID

Data request: Hi there! Could you help me figure out the category for GAACAGCAAUAUUACGUCGA please?
Data returned: HIGH

====

Experiment: self-splicing fitness, log relative to wild type (ln ratio); higher = more splicing; Tetrahymena group I intron in knt gene, E. coli kanamycin selection, DiMSum; sequences stand for … in CUCUCU…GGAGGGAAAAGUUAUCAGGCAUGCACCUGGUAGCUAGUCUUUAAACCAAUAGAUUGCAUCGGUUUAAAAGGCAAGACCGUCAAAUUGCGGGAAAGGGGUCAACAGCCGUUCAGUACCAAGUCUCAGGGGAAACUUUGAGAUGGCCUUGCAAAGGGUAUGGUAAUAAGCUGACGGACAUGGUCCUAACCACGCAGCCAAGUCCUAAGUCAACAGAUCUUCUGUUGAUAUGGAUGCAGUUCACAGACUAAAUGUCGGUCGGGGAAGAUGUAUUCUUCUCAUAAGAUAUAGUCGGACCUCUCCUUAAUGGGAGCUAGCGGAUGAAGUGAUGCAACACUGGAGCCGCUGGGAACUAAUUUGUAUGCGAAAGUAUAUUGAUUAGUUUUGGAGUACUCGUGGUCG
Conditions: 37 °C
Label T when self-splicing fitness (ln) is at or above -2; anything below gets F.

Please review the following examples before continuing.
1) AGCUAGCAAUAUUACGCUUC ... F
2) AGCAAGCAAUAUUACGGUAA ... T
3) ACGGAGCAAUAUUACGAGUA ... T
4) AAUUAGCAAUAUUACGAGCG ... T

Data request: Is the recorded value of self-splicing fitness (ln) equal to or greater than -2 for this sequence? UCGAAGCAAUAUUACGUUCG
Data returned: T

Data request: Is the recorded value of self-splicing fitness (ln) equal to or greater than -2 for this sequence? UAGGAGCAAUAUUACGAUGA
Data returned: T

====

Experiment: self-splicing fitness, log relative to wild type (ln ratio); higher = more splicing; Tetrahymena group I intron in knt gene, E. coli kanamycin selection, DiMSum; sequences stand for … in CUCUCU…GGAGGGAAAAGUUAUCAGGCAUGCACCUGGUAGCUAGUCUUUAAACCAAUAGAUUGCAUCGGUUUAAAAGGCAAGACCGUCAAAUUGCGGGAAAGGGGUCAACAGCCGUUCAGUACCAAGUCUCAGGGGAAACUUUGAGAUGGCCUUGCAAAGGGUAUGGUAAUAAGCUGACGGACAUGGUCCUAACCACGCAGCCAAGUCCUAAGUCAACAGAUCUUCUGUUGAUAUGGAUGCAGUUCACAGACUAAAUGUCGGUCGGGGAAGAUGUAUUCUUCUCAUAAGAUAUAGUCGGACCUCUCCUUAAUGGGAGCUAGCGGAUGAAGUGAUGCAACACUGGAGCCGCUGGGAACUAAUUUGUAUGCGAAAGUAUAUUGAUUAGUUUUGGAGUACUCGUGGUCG
Details: 37 °C
Label Y when self-splicing fitness (ln) is at or above -2; anything below gets N.

1) GGGUAGCAAUAUUACGCGGA ... Y
2) GCCAAGCAAUAUUACGCGGU ... N
3) AUCAAGCAAUAUUACGCGUC ... Y

Data request: Is the recorded value of self-splicing fitness (ln) equal to or greater than -2 for this sequence? UACCAGCAAUAUUACGCUGG
Data returned: N

Data request: Is the recorded value of self-splicing fitness (ln) equal to or greater than -2 for this sequence? UAUGAGCAAUAUUACGUAAU
Data returned: N

Data request: Is the recorded value of self-splicing fitness (ln) equal to or greater than -2 for this sequence? CGUCAGCAAUAUUACGGAUG
Data returned: Y

Data request: Is the recorded value of self-splicing fitness (ln) equal to or greater than -2 for this sequence? GAAUAGCAAUAUUACGUUAC
Data returned: Y

Data request: Is the recorded value of self-splicing fitness (ln) equal to or greater than -2 for this sequence? ACGGAGCAAUAUUACGAUCA
Data returned: Y

Data request: Is the recorded value of self-splicing fitness (ln) equal to or greater than -2 for this sequence? CUUUAGCAAUAUUACGCUAG
Data returned: N
